Target: Kras and SOS1 (biotin-tagged human Kras loaded with GDP, His-tagged human SOS1) (Homo sapiens, UniProt P01116, G12D)
Construct: made in house; host or cells: E. coli (stated for Kras only)
Sequence (P01116 1-188 isoform P01116-2 G12D): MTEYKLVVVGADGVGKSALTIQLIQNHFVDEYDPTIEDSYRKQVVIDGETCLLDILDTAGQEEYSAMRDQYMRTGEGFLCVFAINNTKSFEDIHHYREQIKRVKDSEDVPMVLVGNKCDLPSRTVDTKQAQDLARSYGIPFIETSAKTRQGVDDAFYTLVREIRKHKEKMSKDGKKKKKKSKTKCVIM
Assay: Protein-protein interaction inhibition between Kras and SOS1 (KrasGl2D-SOS PPI) using AlphaScreen
Format: binding
Conditions: AlphaScreen; biotin-tagged human Kras loaded with GDP, His-tagged human SOS1; read-out: KRAS G12D-SOS PPI IC50
Protocol: Protein-Protein Interaction Inhibition Between Kras and SOS1 (KrasGl2D-SOS PPI) Using AlphaScreen Protein-protein interaction inhibition (PPI) between Kras and SOS1 was measured by energy transfer from nickel-conjugated donor beads to streptavidin-conjugated acceptor beads using biotin-tagged human Kras expressed in E. coli and loaded with GDP after purification and His-tagged human SOS1 enzyme. […]
pIC50: −log10 of the molar value. Positions of bridges follow the written chain, without caps; N, C: chain ends. Non-standard residues stand in square brackets, D forms with d. Residues, ends and D or L forms follow the SMILES beside them. *: point of attachment. hPhe(3-F,4-CF3) = N[C@@H](CCc1ccc(C(F)(F)F)c(F)c1)C(=O)O; NMePhe(4-Cl) = CN[C@@H](Cc1ccc(Cl)cc1)C(=O)O; Phe(3-Cl) = N[C@@H](Cc1cccc(Cl)c1)C(=O)O; Phe(3-I) = N[C@@H](Cc1cccc(I)c1)C(=O)O; NMeCha = CN[C@@H](CC1CCCCC1)C(=O)O; NMeF = CN[C@@H](Cc1ccccc1)C(=O)O; NMeD = CN[C@@H](CC(=O)O)C(=O)O; NMeL = CN[C@@H](CC(C)C)C(=O)O; NMeV = CN[C@H](C(=O)O)C(C)C; NMeA = CN[C@@H](C)C(=O)O; NMeAib = CNC(C)(C)C(=O)O; Piperidide = C1CCN(*)CC1; Pyrrolidide = C1CCN(*)C1; Ac5c = NC1(C(=O)O)CCCC1; Sar = CNCC(=O)O
Attribute Measured: pIC50

• CC[C@H](C)[C@@H]1NC(=O)[C@H](C)N(C)C(=O)C[C@@H](C(=O)N2CCCC2)NC(=O)[C@H](C(C)C)N(C)C(=O)[C@H](Cc2ccccc2)N(C)C(=O)[C@H](C)NC(=O)[C@H](Cc2cccc(Cl)c2)NC(=O)CN(C)C(=O)[C@H](Cc2ccc(Cl)cc2)N(C)C(=O)CN(C)C(=O)CN(C)C1=O [Compound 612] ([NMeA]I[Sar][Sar][NMePhe(4-Cl)][Sar][Phe(3-Cl)]A[NMeF][NMeV]D-Pyrrolidide; lactam N-11) = 6.92
• CC[C@H](C)[C@@H]1NC(=O)[C@H](CC(C)C)N(C)C(=O)C[C@@H](C(=O)N2CCCCC2)NC(=O)[C@H](CC(C)C)N(C)C(=O)C2(CCCC2)NC(=O)[C@@H]2CCCN2C(=O)[C@H](CCc2ccc(C(F)(F)F)c(F)c2)NC(=O)CN(C)C(=O)[C@H](CC2CCCCC2)N(C)C(=O)CN(C)C(=O)CN(C)C1=O [Compound 298] ([NMeL]I[Sar][Sar][NMeCha][Sar][hPhe(3-F,4-CF3)]P[Ac5c][NMeL]D-Piperidide; lactam N-11) = 7.68
• CC[C@H](C)[C@@H]1NC(=O)[C@H](CC(C)C)N(C)C(=O)C[C@@H](C(=O)N2CCCCC2)N(C)C(=O)[C@H](CC(C)C)NC(=O)C(C)(C)N(C)C(=O)[C@H](Cc2ccc(OC)cc2)NC(=O)[C@H](Cc2cccc(I)c2)NC(=O)CN(C)C(=O)[C@H](CC2CCCCC2)N(C)C(=O)CN(C)C(=O)CN(C)C1=O [Compound 320] ([NMeL]I[Sar][Sar][NMeCha][Sar][Phe(3-I)]Y(Me)[NMeAib]L[NMeD]-Piperidide; lactam N-11) = 8.00

----------
target: Kras and SOS1 (biotin-tagged human Kras loaded with GDP, His-tagged human SOS1) (Homo sapiens, UniProt P01116, G12D); construct: made in house; host or cells: E. coli (stated for Kras only); assay: Protein-protein interaction inhibition between Kras and SOS1 (KrasGl2D-SOS PPI) using AlphaScreen; type: binding; conditions: AlphaScreen; biotin-tagged human Kras loaded with GDP, His-tagged human SOS1; read-out: KRAS G12D-SOS PPI IC50
pIC50: −log10 of the molar value. Positions of bridges follow the written chain, without caps; N, C: chain ends. Non-standard residues stand in square brackets, D forms with d. Residues, ends and D or L forms follow the SMILES beside them. *: point of attachment. hPhe(3,5-F2-4-CF3) = N[C@@H](CCc1cc(F)c(C(F)(F)F)c(F)c1)C(=O)O; hPhe(3-Cl-4-CF3) = N[C@@H](CCc1ccc(C(F)(F)F)c(Cl)c1)C(=O)O; NMePhe(4-CF3) = CN[C@@H](Cc1ccc(C(F)(F)F)cc1)C(=O)O; NMePhe(4-F) = CN[C@@H](Cc1ccc(F)cc1)C(=O)O; NMePhe(2-F) = CN[C@@H](Cc1ccccc1F)C(=O)O; NMeCha = CN[C@@H](CC1CCCCC1)C(=O)O; NEtLeu = CCN[C@@H](CC(C)C)C(=O)O; NMeCba = CN[C@@H](CC1CCC1)C(=O)O; NMeChg = CN[C@H](C(=O)O)C1CCCCC1; NMeI = CC[C@H](C)[C@H](NC)C(=O)O; NMeD = CN[C@@H](CC(=O)O)C(=O)O; NMeL = CN[C@@H](CC(C)C)C(=O)O; NMeNva = CCC[C@H](NC)C(=O)O; NMeV = CN[C@H](C(=O)O)C(C)C; d(β3hA) = C[C@@H](N)CC(=O)O; Morpholide = C1CN(*)CCO1; NMeA = CN[C@@H](C)C(=O)O; Piperidide = C1CCN(*)CC1; Pyrrolidide = C1CCN(*)C1; Ac5c = NC1(C(=O)O)CCCC1; Aze = O=C(O)[C@@H]1CCN1; Sar = CNCC(=O)O
Attribute Measured: pIC50

- CC[C@H](C)[C@@H]1NC(=O)[C@H](CC(C)C)N(C)C(=O)C[C@@H](C)NC(=O)[C@H](C(C)C)N(C)C(=O)C2(CCCC2)NC(=O)[C@@H]2CCCN2C(=O)[C@H](CCc2ccc(C(F)(F)F)c(Cl)c2)NC(=O)CN(C)C(=O)[C@H](Cc2ccccc2F)N(C)C(=O)CN(C)C(=O)CN(C)C1=O [Compound 1585] (cyclo([Ac5c][NMeV][d(β3hA)][NMeL]I[Sar][Sar][NMePhe(2-F)][Sar][hPhe(3-Cl-4-CF3)]P)): 7.37
- CC[C@H](C)[C@@H]1NC(=O)[C@H](CC(C)C)N(CC)C(=O)C[C@@H](C(=O)N2CCOCC2)N(C)C(=O)[C@H](C2CCCCC2)N(C)C(=O)C2(CCCC2)NC(=O)[C@@H]2CCCN2C(=O)[C@H](CCc2ccc(C(F)(F)F)c(Cl)c2)NC(=O)CN(C)C(=O)[C@H](CC2CCCCC2)N(C)C(=O)CN(C)C(=O)CN(C)C1=O [Compound 1189] ([NEtLeu]I[Sar][Sar][NMeCha][Sar][hPhe(3-Cl-4-CF3)]P[Ac5c][NMeChg][NMeD]-Morpholide; lactam N-11): 9.13
- CC[C@H](C)[C@@H]1NC(=O)[C@H](C)N(C)C(=O)C[C@@H](C(=O)N(C)C)N(C)C(=O)[C@H]([C@@H](C)CC)N(C)C(=O)C2(CCCC2)NC(=O)[C@H](Cc2ccc(F)cc2)N(C)C(=O)[C@H](CCc2cc(F)c(C(F)(F)F)c(F)c2)NC(=O)CN(C)C(=O)[C@H](Cc2ccc(C(F)(F)F)cc2)N(C)C(=O)[C@@H]2CCN2C(=O)[C@H](C)N(C)C1=O [Compound 1986] ([NMeA]I[NMeA][Aze][NMePhe(4-CF3)][Sar][hPhe(3,5-F2-4-CF3)][NMePhe(4-F)][Ac5c][NMeI][NMeD]-NMe2; lactam N-11): 7.96
- CCC[C@H]1C(=O)N[C@@H]([C@@H](C)CC)C(=O)N(C)CC(=O)N(C)CC(=O)N(C)[C@@H](CC2CCCCC2)C(=O)N(C)CC(=O)N[C@@H](CCc2ccc(C(F)(F)F)c(Cl)c2)C(=O)N2CCC[C@H]2C(=O)NC2(CCCC2)C(=O)N(C)[C@@H](C2CCCCC2)C(=O)N(C)[C@H](C(=O)N2CCCC2)CC(=O)N1C [Compound 2001] ([NMeNva]I[Sar][Sar][NMeCha][Sar][hPhe(3-Cl-4-CF3)]P[Ac5c][NMeChg][NMeD]-Pyrrolidide; lactam N-11): 9.32
- CC[C@H](C)[C@@H]1NC(=O)[C@H](CC(C)C)N(C)C(=O)C[C@@H](C(=O)N2CCCCC2)N(C)C(=O)[C@H](CC2CCC2)N(C)C(=O)C2(CCCC2)NC(=O)[C@@H]2CCCN2C(=O)[C@H](CCc2ccc(C(F)(F)F)c(Cl)c2)NC(=O)CN(C)C(=O)[C@H](CC2CCCCC2)N(C)C(=O)CN(C)C(=O)CN(C)C1=O [Compound 968] ([NMeL]I[Sar][Sar][NMeCha][Sar][hPhe(3-Cl-4-CF3)]P[Ac5c][NMeCba][NMeD]-Piperidide; lactam N-11): 8.51
